assay info: Determination of bioavailability in adult SD rats
Format: in vivo
condition set: Sprague-Dawley, rat, plasma; female SD rats, PO (10 mg/kg), suspension
reported endpoint: Tmax (min)
Supply the numeric figure in min, leaving out any unit text.

Entry N#CCC1(n2cc(-c3ncnc4[nH]ccc34)c(N)n2)CN(C2CCN(C(=O)c3ccnc(C(F)(F)F)c3F)CC2)C1 ; Tmax = 30

* * *

assay info: Pharmacokinetic (PK) determination in adult Beagle dogs
Assay type: in vivo
condition set: male, beagle, dog, plasma, po, 19.5 mg/kg, male Beagle dogs, oral gavage 19.5 mg/kg
reported endpoint: half-life (h)
# unit: h | format: bare number

For reference, reported half-life for N#CCC1(n2cc(-c3ncnc4[nH]ccc34)c(N)n2)CN(C2CCN(C(=O)c3ccnc(C(F)(F)F)c3F)CC2)C1 stands at 2.45

* * *

assay info: Determination of bioavailability in adult SD rats
Format: in vivo
condition set: Sprague-Dawley, rat, plasma; female SD rats, PO (10 mg/kg), suspension
reported endpoint: AUC 0-inf (ng·h/mL)
# output: bare number, implied unit ng·h/mL

Entry N#CCC1(n2cc(-c3ncnc4[nH]ccc34)c(N)n2)CN(C2CCN(C(=O)c3ccnc(C(F)(F)F)c3F)CC2)C1 ; AUC 0-inf = 783

* * *

assay info: Determination of bioavailability in adult SD rats
Format: in vivo
condition set: Sprague-Dawley, rat, plasma; female SD rats, IV (1 mg/kg); read-out: Cl s,app
reported endpoint: clearance (mL/min/kg)
Could you give me the number in mL/min/kg? Just the number is fine.

Item: N#CCC1(n2cc(-c3ncnc4[nH]ccc34)c(N)n2)CN(C2CCN(C(=O)c3ccnc(C(F)(F)F)c3F)CC2)C1 | clearance: 37.7

* * *

assay info: Determination of bioavailability in adult SD rats
Type: in vivo
condition set: Sprague-Dawley, rat, plasma; female SD rats, PO (10 mg/kg), suspension
reported endpoint: half-life (h)
Write the value in h as a bare number.

// half-life lookup, compound = N#CCC1(n2cc(-c3ncnc4[nH]ccc34)c(N)n2)CN(C2CCN(C(=O)c3ccnc(C(F)(F)F)c3F)CC2)C1 , result: 1.9

* * *

assay info: Determination of bioavailability in adult SD rats
Format: in vivo
condition set: Sprague-Dawley, rat, plasma; female SD rats, PO (10 mg/kg), suspension
reported endpoint: Cmax (ng/mL)
Your answer is read as ng/mL, so omit the unit and give the number.

GET /value?item= N#CCC1(n2cc(-c3ncnc4[nH]ccc34)c(N)n2)CN(C2CCN(C(=O)c3ccnc(C(F)(F)F)c3F)CC2)C1 &field=Cmax returns 475

* * *

assay info: Determination of bioavailability in adult SD rats
Format: in vivo
condition set: Sprague-Dawley, rat, plasma; female SD rats, IV (1 mg/kg)
reported endpoint: half-life (min)
Respond numerically; units are min and should not be typed.

Kindly note the recorded half-life for N#CCC1(n2cc(-c3ncnc4[nH]ccc34)c(N)n2)CN(C2CCN(C(=O)c3ccnc(C(F)(F)F)c3F)CC2)C1 , which is 36.6

* * *

assay info: Determination of bioavailability in adult SD rats
Format: in vivo
condition set: Sprague-Dawley, rat, plasma; female SD rats, IV (1 mg/kg); read-out: VZ
reported endpoint: Vd

Record N#CCC1(n2cc(-c3ncnc4[nH]ccc34)c(N)n2)CN(C2CCN(C(=O)c3ccnc(C(F)(F)F)c3F)CC2)C1 , field Vd: 1.5 L/kg

* * *

assay info: Determination of bioavailability in adult SD rats
Format: in vivo
condition set: Sprague-Dawley, rat, plasma; female SD rats, IV (1 mg/kg)
Description: Healthy adult female Sprague-Dawley rats were obtained from Beijing Weitong Lihua Laboratory Animal Technology Co., Ltd. The study was conducted in two phases: first, animals received a single intravenous injection of 1 mg/kg; second, one week later, the same group received a single oral gavage of the suspension at a dose of 10 mg/kg. […] Plasma samples were extracted using protein precipitation, and the extracts were analyzed by LC/MS/MS.
reported endpoint: AUC 0-inf (ng·h/mL)
Express the result in ng·h/mL but write the number alone.

So, N#CCC1(n2cc(-c3ncnc4[nH]ccc34)c(N)n2)CN(C2CCN(C(=O)c3ccnc(C(F)(F)F)c3F)CC2)C1 ? Its AUC 0-inf was 456
